Target: human BRS-3-receptor (Homo sapiens, UniProt P32247)
Sequence (P32247 1-399): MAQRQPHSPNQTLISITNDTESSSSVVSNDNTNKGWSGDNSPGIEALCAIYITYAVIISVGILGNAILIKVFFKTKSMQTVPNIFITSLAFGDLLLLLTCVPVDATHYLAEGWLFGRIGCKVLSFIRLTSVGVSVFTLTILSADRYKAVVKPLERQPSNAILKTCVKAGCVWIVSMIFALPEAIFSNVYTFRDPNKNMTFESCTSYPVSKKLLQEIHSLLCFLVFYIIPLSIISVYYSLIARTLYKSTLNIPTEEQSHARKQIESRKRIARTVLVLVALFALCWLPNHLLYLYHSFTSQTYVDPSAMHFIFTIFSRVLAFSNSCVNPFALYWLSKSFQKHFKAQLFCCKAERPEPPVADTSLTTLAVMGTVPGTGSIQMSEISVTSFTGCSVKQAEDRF
Assay: [3H]-inositol phosphates
Type: cell-based
Details: EC50, release of [3H]IP, BRS-3/H1299 cells
READOUT KIND: EC50 (nM)
Write it as a number; the unit nM goes unstated.

Input: Print human BRS-3-receptor (Homo sapiens, UniProt P32247) EC50 for O[C@@](Cc1nc(CC2(C(F)(F)F)CC2)c[nH]1)(c1ccc(-n2cccn2)cc1)C(F)(F)F [MK-5046] .
Output: 0.37
